target: recombinant human MMP-2 (Homo sapiens)
protocol_description: In vitro fluorescence assay of MMP-2 activity
endpoint_name: pIC50
Units for pIC50: none; it is -log10 of a concentration expressed in mol/L.

Illustrative cases are given below, each with its answer.
chem_smiles: CSc1ccc(CNC(=O)[C@H](CCC(=O)O)NC(=O)c2ccc(-c3ccccc3)cc2)cc1
target: recombinant human MMP-2 (Homo sapiens)
measured_value: 5.46
--
chem_smiles: CC(C)(Cc1ccc(F)cc1)NC(=O)[C@H](CCC(=O)O)NC(=O)c1ccc(-c2ccc(F)cc2)s1
target: recombinant human MMP-2 (Homo sapiens)
measured_value: 5.08
--
chem_smiles: CCCNC(=O)[C@H](CCC(=O)O)NC(=O)c1ccc(-c2ccccc2)cc1
target: recombinant human MMP-2 (Homo sapiens)
measured_value: 5.03
--
chem_smiles: O=C(O)CC[C@H](NC(=O)c1ccc(-c2ccccc2)cc1)C(=O)NCCc1cccs1
target: recombinant human MMP-2 (Homo sapiens)
measured_value: 4.88
--
chem_smiles: Cc1ccc(CNC(=O)[C@H](CCC(=O)O)NC(=O)c2ccc(-c3ccccc3)cc2)cc1C
target: recombinant human MMP-2 (Homo sapiens)
measured_value: 5.34
--
chem_smiles: CC(C)(Cc1ccc(F)cc1)NC(=O)[C@H](CCC(=O)O)NC(=O)c1ccc(-c2ccc(Cl)s2)nc1
target: recombinant human MMP-2 (Homo sapiens)
measured_value: 5.89

API: the following record is the query input.
Which pIC50 reading was recorded for the compound Cc1cccc(CNC(=O)[C@H](CCC(=O)O)NC(=O)c2ccc(-c3ccccc3)cc2)c1 ?
5.30

* * *

target: purified recombinant human Aggrecanase-2 (Ag2t-Phe628-Strep) (Homo sapiens, UniProt Q9UNA0)
Construct: the form used is denoted as Ag2t-Phe628-Strep (MW=41,737)
Sequence (Q9UNA0 262-628): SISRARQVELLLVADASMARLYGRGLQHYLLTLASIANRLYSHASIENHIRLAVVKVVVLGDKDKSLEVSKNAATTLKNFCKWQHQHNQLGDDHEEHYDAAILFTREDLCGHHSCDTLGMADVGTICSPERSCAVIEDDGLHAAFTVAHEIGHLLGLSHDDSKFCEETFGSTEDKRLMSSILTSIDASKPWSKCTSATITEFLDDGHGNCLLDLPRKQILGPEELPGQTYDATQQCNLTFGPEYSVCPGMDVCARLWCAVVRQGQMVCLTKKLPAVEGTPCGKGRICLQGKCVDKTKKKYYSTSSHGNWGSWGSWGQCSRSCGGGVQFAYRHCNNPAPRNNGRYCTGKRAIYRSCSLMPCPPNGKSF
protocol_description: In vitro fluorescence screen for Aggrecanase-2 inhibitors
Type: biochemical
assay_setup: Table 3; read-out: Agg 2 IC50
Reported IC50 values for a set of molecules

Example cases with answers are listed next.
chem_smiles: CC(C)(Cc1ccc(Cl)cc1)NC(=O)[C@H](CCC(=O)O)NC(=O)c1ccc(-c2ccc3c(c2)OCC3)cc1
endpoint_name: IC50
measured_value: 0.09 to 0.27 µM
--
chem_smiles: COc1cc(CNC(=O)[C@H](CCC(=O)O)NC(=O)c2ccc(-c3ccc(CBr)cc3)cc2)cc(OC)c1OC
endpoint_name: IC50
measured_value: 0.614 µM

Consider the molecule shown here: CC(C)(Cc1ccccc1)NC(=O)[C@H](CCC(=O)O)NC(=O)c1ccc(-c2cccnc2)s1 What is its recorded IC50?
7.2 µM

* * *

target: recombinant human MMP-2 (Homo sapiens, UniProt P08253)
Sequence (P08253 110-660): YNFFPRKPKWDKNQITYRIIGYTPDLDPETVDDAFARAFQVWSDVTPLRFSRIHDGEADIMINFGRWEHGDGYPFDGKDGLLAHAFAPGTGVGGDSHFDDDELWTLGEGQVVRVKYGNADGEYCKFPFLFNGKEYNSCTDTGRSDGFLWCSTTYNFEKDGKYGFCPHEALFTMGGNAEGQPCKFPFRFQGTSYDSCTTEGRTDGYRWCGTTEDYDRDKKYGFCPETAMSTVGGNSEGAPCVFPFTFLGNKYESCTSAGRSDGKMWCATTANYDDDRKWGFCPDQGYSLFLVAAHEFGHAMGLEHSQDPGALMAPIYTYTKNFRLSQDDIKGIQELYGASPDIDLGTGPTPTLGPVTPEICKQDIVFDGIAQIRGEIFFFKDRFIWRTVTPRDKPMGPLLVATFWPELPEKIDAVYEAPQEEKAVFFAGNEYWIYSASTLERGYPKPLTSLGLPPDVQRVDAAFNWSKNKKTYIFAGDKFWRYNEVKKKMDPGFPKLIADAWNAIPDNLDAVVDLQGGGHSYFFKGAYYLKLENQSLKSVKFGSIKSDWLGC
protocol_description: In vitro fluorescence assay of MMP-2 activity
endpoint_name: pIC50
Please keep in mind that pIC50 is minus log10 of the molar concentration; only the number is needed.

Illustrative cases are given below, each with its answer.
molecule: O=C(O)CC[C@H](NC(=O)c1ccc(-c2ccccc2)cc1)C(=O)NCc1ccc(F)cc1 [Example 8D]
target: recombinant human MMP-2 (Homo sapiens, UniProt P08253)
pIC50: 5.36
//
molecule: COc1ccc(CNC(=O)[C@H](CCC(=O)O)NC(=O)c2ccc(-c3ccccc3)cc2)c(OC)c1 [Example 8Y]
target: recombinant human MMP-2 (Homo sapiens, UniProt P08253)
pIC50: 5.26

Here is the next item to consider.
Reported pIC50 for recombinant human MMP-2 (Homo sapiens, UniProt P08253), given CC(C)(Cc1ccc(F)cc1)NC(=O)[C@H](CCC(=O)O)NC(=O)c1ccc(-c2ccc(F)c(F)c2)cc1 [Example 8YYYYYY] ?
5.33

* * *

target: MMP-1 (Homo sapiens)
Sequence (P03956 100-469, species assumed): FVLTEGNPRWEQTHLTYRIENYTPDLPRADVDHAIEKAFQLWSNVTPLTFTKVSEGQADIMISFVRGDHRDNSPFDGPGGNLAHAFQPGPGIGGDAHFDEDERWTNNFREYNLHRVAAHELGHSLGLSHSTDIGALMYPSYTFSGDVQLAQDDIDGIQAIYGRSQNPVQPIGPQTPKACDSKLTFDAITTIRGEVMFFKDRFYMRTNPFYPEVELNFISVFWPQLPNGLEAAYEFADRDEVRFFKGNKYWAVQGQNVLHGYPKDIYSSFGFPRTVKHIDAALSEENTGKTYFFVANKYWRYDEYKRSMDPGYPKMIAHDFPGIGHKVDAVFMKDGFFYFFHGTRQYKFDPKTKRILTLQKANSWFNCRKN
protocol_description: MMP-1 of Table 1
Assay type: biochemical
assay_setup: unit not given
endpoint_name: MMP-1

Study these solved cases before continuing.
compound: O=C(O)CC[C@H](NC(=O)c1ccc(-c2ccccc2)cc1)C(=O)NCCCCCO [Example 8WWW]
MMP-1: no inh
--
compound: COc1cccc(CNC(=O)[C@H](CCC(=O)O)NC(=O)c2ccc(-c3ccccc3)cc2)c1 [Example 8Q]
MMP-1: no inh
--
compound: O=C(O)CC[C@H](NC(=O)c1ccc(-c2ccccc2)cc1)C(=O)NCc1ccc(Cl)cc1Cl [Example 8S]
MMP-1: no inh
--
compound: CCCCCCNC(=O)[C@H](CCC(=O)O)NC(=O)c1ccc(-c2ccccc2)cc1 [Example 8VVV]
MMP-1: no inh
--
compound: COc1cc(CNC(=O)[C@H](CCC(=O)O)NC(=O)c2ccc(-c3ccccc3)cc2)cc(OC)c1 [Example 8CC]
MMP-1: no inh
--
compound: O=C(O)CC[C@H](NC(=O)c1ccc(-c2ccccc2)cc1)C(=O)NCCc1ccccc1Cl [Example 8VV]
MMP-1: no inh

What MMP-1 value was documented for this compound, COc1cccc(CCNC(=O)[C@H](CCC(=O)O)NC(=O)c2ccc(-c3ccccc3)cc2)c1 [Example 8X] ?
no inh

Queued: COc1ccc(CNC(=O)[C@H](CCC(=O)O)NC(=O)c2ccc(-c3ccccc3)cc2)c(OC)c1 [Example 8Y]
no inh

* * *

target: purified recombinant human Aggrecanase-1 (rAgg1) (Homo sapiens, UniProt O75173)
Sequence (O75173 213-837): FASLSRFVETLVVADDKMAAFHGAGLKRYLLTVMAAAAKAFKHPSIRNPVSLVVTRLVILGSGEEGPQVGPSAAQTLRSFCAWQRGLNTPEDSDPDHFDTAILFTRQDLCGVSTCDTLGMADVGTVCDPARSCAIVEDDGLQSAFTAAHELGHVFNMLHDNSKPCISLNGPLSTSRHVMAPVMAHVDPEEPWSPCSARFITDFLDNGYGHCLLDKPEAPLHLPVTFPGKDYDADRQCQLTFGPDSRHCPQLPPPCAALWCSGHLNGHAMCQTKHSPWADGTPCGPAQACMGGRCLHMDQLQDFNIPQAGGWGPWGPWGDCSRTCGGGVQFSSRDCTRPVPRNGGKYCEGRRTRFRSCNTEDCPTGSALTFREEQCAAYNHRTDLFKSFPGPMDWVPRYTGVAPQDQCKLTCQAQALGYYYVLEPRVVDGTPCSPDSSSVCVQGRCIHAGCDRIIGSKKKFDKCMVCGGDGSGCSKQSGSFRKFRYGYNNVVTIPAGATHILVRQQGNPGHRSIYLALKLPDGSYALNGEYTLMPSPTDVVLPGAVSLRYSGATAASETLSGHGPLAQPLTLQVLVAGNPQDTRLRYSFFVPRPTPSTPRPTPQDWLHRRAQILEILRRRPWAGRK
protocol_description: In vitro fluorescence screen for Aggrecanase-1 inhibitors
Assay type: biochemical
assay_setup: Table 1; read-out: Agg1 IC50
endpoint_name: pIC50
Schema: pIC50 number; meaning minus log10 of the concentration expressed in molar units.

Below are worked cases with known answers.
compound: O=C(O)CC[C@H](NC(=O)c1ccc(-c2ccccc2)cc1)C(=O)NCCc1ccc(F)cc1
endpoint_name: pIC50
measured_value: 7.00
//
compound: O=C(O)CC[C@H](NC(=O)c1ccc(-c2ccc(NC(=O)c3ccco3)cc2)cc1)C(=O)NCc1ccccc1 [Example 24A]
endpoint_name: pIC50
measured_value: 5.96
//
compound: O=C(O)CC[C@H](NC(=O)c1ccc(-c2ccccc2)cc1)C(=O)NCCc1ccccc1
endpoint_name: pIC50
measured_value: 6.70
//
compound: O=C(O)CC[C@H](NC(=O)c1ccc(-c2ccccc2)cc1)C(=O)NCCN1CCOCC1
endpoint_name: pIC50
measured_value: 6.52
//
compound: CCCCNC(=O)[C@H](CCC(=O)O)NC(=O)c1ccc(-c2ccccc2)cc1
endpoint_name: pIC50
measured_value: 6.96
//
compound: COc1cccc(CNC(=O)[C@H](CCC(=O)O)NC(=O)c2ccc(-c3ccccc3)cc2)c1
endpoint_name: pIC50
measured_value: 7.96
//
compound: CCc1ccc(-c2ccc(C(=O)N[C@@H](CCC(=O)O)C(=O)NCc3ccccc3)cc2)cc1 [Example 13C]
endpoint_name: pIC50
measured_value: 5.02
//
compound: C=Cc1ccc(CNC(=O)[C@H](CCC(=O)O)NC(=O)c2ccc(-c3ccccc3)cc2)cc1 [Example 10R]
endpoint_name: pIC50
measured_value: 7.11
//
compound: O=C(O)CC[C@H](NC(=O)c1ccc(-c2ccc(NC(=O)c3cc4ccccc4o3)cc2)cc1)C(=O)O
endpoint_name: pIC50
measured_value: 6.00
//
compound: O=C(O)CC[C@H](NC(=O)c1ccc(-c2ccccc2)cc1)C(=O)NCc1ccc2c(c1)OCO2
endpoint_name: pIC50
measured_value: 6.82

Lab note: need pIC50 for CN(C)c1ccc(CNC(=O)[C@H](CCC(=O)O)NC(=O)c2ccc(-c3ccccc3)cc2)cc1 on purified recombinant human Aggrecanase-1 (rAgg1) (Homo sapiens, UniProt O75173), anyone have it?
7.00

# iterate: Cc1cc(C)cc(-c2ccc(C(=O)N[C@@H](CCC(=O)O)C(=O)NCc3ccccc3)cc2)c1 [Example 13A]
5.82

Entry to check: O=C(O)CC[C@H](NC(=O)c1ccc(-c2ccccc2)cc1)C(=O)NCc1cccc(C(F)(F)F)c1
7.00

Param item: CC(C)(Cc1ccc(F)cc1)NC(=O)[C@@H](CCC(=O)O)NC(=O)c1ccc(-c2ccccc2)cc1
5.44

Now consider O=C(O)CC[C@H](NC(=O)c1ccc(-c2ccccc2)nc1)C(=O)NCc1ccccc1 [Example 22A] and answer again.
6.00

Next entry: O=C(O)CC[C@H](NC(=O)c1ccc(-c2ccccc2)cc1)C(=O)NCc1ccc(F)c(C(F)(F)F)c1
7.00

Okay, and O=C(O)CC[C@H](NC(=O)c1ccc(-c2ccccc2)cc1)C(=O)NCCc1ccc(Br)cc1 ?
6.92

Repeat with O=C(O)CC[C@H](NC(=O)c1ccc(-c2ccccc2)cc1)C(=O)NCCCCCCO
7.52

Let us now turn to O=C(O)CC[C@H](NC(=O)c1ccc(-c2ccccc2)cc1)C(=O)NCCc1ccccc1F
6.52

Cited source: patent US7998965B2
